Assay: PAMPA permeability
Conditions: PAMPA
The reader will find reported Perm. (1 × 10^−6 cm/sec) values listed item by item below.

Examples from the recorded data:
CC1=C(C(=O)Nc2nnc(-c3ccncc3)s2)C(c2ccccc2Cl)N=C(Nc2nc3ccccc3o2)N1 (stereo not drawn); 6.2 1 × 10^−6 cm/sec
CC1=C(C(=O)NCc2ccc(CO)cc2)C(c2ccccc2Cl)N=C(Nc2nc3ccccc3o2)N1 (stereo not drawn); 867.3 1 × 10^−6 cm/sec
CC1=C(C(=O)Nc2ccc(C#N)cc2)C(c2ccccc2Cl)N=C(Nc2nc3ccccc3o2)N1 (stereo not drawn); <18.7 1 × 10^−6 cm/sec
COCC1=C(C(=O)Nc2nncs2)C(c2ccccc2Cl)N=C(Nc2nc3ccccc3o2)N1 (stereo not drawn); 319.8 1 × 10^−6 cm/sec

Query block: Fill in reported Perm. (1 × 10^−6 cm/sec) for this entry: CC1=C(C(=O)Nc2nncs2)C(c2nn(C)cc2Cl)N=C(Nc2nc3ccccc3o2)N1 (stereo not drawn)
Result block: 746.9 1 × 10^−6 cm/sec

Query block: Fill in reported Perm. (1 × 10^−6 cm/sec) for this entry: CC1=C(C(=O)Nc2ccc(CO)cc2)C(c2ccccc2Cl)N=C(Nc2nc3ccccc3o2)N1 (stereo not drawn)
Result block: 863.9 1 × 10^−6 cm/sec

---

Target: recombinant mouse GALK1 (Mus musculus)
Sequence (Q9R0N0 whole entry): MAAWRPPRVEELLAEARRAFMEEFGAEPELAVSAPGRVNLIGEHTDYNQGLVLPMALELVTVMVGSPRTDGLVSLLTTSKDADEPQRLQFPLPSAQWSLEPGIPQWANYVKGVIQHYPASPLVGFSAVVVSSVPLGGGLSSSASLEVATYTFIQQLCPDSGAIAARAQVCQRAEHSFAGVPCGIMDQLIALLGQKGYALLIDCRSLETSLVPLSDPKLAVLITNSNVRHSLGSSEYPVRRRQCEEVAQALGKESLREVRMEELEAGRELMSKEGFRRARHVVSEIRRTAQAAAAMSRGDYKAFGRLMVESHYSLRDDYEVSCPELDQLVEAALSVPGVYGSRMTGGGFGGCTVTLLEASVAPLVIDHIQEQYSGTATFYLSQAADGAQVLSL
Test: mGALK1 biochemical activity assay (Kinase-Glo Plus, ATP depletion)
Settings: recombinant mouse GALK1, Kinase-Glo Plus ATP depletion; read-out: mGALK
pIC50: −log10 of the molar value.
Label scheme for pIC50: lower than 5 is No, 5 and above is Yes.

Reference set, count: 5
CC1=C(C(=O)Nc2nc(CO)cs2)C(c2ccccc2Cl)N=C(Nc2nc3ccccc3o2)N1 (stereo not drawn); No
CCn1cc(CNC(=O)C2=C(C)NC(Nc3nc4ccc(F)c(N)c4o3)=NC2c2ccc(Cl)cc2Cl)cn1 (stereo not drawn); Yes
COc1ccc([C@H]2N=C(Nc3nc4ccc(F)cc4o3)NC(C)=C2C(=O)Nc2cc(C(=O)O)ccn2)c(Cl)c1; No
CC1=C(C(=O)Nc2ccc(-n3cncn3)cc2)C(c2ccccc2Cl)N=C(Nc2nc3ccccc3o2)N1 (stereo not drawn); No
CC1=C(C(=O)NCc2c(C)nn(C)c2C)C(c2ccc(C)cc2Cl)N=C(Nc2nc3ccc(F)cc3o2)N1 (stereo not drawn); Yes

Query block: Has COc1cccc(C2N=C(Nc3nc4ccc(F)cc4o3)NC(C)=C2C(=O)Nc2cc(C(=O)O)ccn2)c1Cl (stereo not drawn) a recorded pIC50 greater than or equal to 5?
Result block: No

Query block: Has CC1=C(C(=O)Nc2cc(C(=O)O)ccc2C)C(c2ccccc2Cl)N=C(Nc2nc3ccc(F)cc3o2)N1 (stereo not drawn) a recorded pIC50 greater than or equal to 5?
Result block: No

Query block: Has CC1=C(C(=O)Nc2cc(C(=O)O)ccn2)C(c2ccccc2Cl)N=C(Nc2nc3c(C)cccc3o2)N1 (stereo not drawn) a recorded pIC50 greater than or equal to 5?
Result block: No

Query block: Has CC1=C(C(=O)Nc2cc(C(=O)O)ccn2)C(c2ccc(-c3cnc(C)nc3)cc2Cl)N=C(Nc2nc3ccc(F)cc3o2)N1 (stereo not drawn) a recorded pIC50 greater than or equal to 5?
Result block: Yes

Query block: Has CC1=C(C(=O)Nc2cc(C(=O)O)ccn2)C(c2ccccc2Cl)N=C(Nc2nc3c(F)cccc3o2)N1 (stereo not drawn) a recorded pIC50 greater than or equal to 5?
Result block: No

Query block: Has CC1=C(C(=O)Nc2cc(C(=O)O)ccn2)C(c2ccc(F)cc2Cl)N=C(Nc2nc3ccc(F)cc3o2)N1 (stereo not drawn) a recorded pIC50 greater than or equal to 5?
Result block: Yes

Query block: Has CC1=C(C(=O)Nc2ccc(C(=O)O)cn2)C(c2ccccc2Cl)N=C(Nc2nc3ccc(F)cc3o2)N1 (stereo not drawn) a recorded pIC50 greater than or equal to 5?
Result block: Yes
